Value source: ChEMBL document CHEMBL1201862

Measured GI50, listed per entry.
Test system: U-251
Assay: NCI tumour cell line growth inhibition, 48 h
Activity calls are given as the source filed them. Rule as the data show it: active = GI50 up to about 1.1 µM and inactive = higher.

The following molecules have reported results that may help.
1. O=c1cc(CNC2CC3CCC2C3)[nH]c(=O)[nH]1 (stereo unspecified)    > 100 µM (inactive)
2. CN(C)c1ccc(/C(Br)=C2\OC(=O)c3ccccc32)cc1    > 100 µM (inactive)
3. CCOC(=O)c1sc2c(C(=O)OCC)n3cc(C)cc(C)c3c2c1O    > 100 µM (inactive)
4. COc1cc2oc(=O)ccc2cc1C1OC(=O)C2OC21C (stereo unspecified)    > 100 µM (inactive)
5. O=[N+]([O-])c1ccc(C2Nn3c(nnc3-c3cccc([N+](=O)[O-])c3)S2)cc1 (stereo unspecified)    > 100 µM (inactive)
6. C=C(C)CCN(C(=O)OC(C)(C)C)c1cc(C(C)C)co1    26.7 µM (inactive)
7. O=CC(O)C(O)C1OC(=O)c2cc(O)c(O)c(O)c2C2=C(O)C(O)=C3OC(=O)c4c(c(O)c(O)c5c4C3C2C(=O)O5)-c2c(cc(O)c(O)c2O)C(=O)OCC1O (stereo unspecified)    19.2 µM (inactive)
8. CCCC(=O)Nc1cc(C(=O)N2C[C@@H]3C[C@]34C2=CC(=O)c2[nH]cc(C)c24)n(COC)c1    3.17 µM (inactive)
9. CCOC(=O)NC(Nc1cccc(F)c1)(C(F)(F)F)C(F)(F)F    > 100 µM (inactive)
10. CCN(CC)CCCC(C)NC(=O)c1cc(-c2nccn2C)nc2ccc(C)cc12 (stereo unspecified)    > 100 µM (inactive)

Identify the reported GI50 for the following entry. `COc1ccc(-n2c3c(c4cc(O)ccc42)Cc2ccccc2C3=O)cc1`
45.2 µM (inactive)

Identify the reported GI50 for the following entry. `COc1ccc(/C=C2\N=C(SC)N(C)C2=O)cc1`
89.7 µM (inactive)

Identify the reported GI50 for the following entry. C=C1CC(C/C=C(\C)CC2CC(=C)C(=O)O2)OC1=O (stereo unspecified)
> 100 µM (inactive)

Identify the reported GI50 for the following entry. C=C1C(=O)OC2/C=C(/C)C(OC(C)=O)CC(O)/C(C)=C\C(OC(=O)/C(C)=C\C)C12 (stereo unspecified)
> 100 µM (inactive)

Identify the reported GI50 for the following entry. COC(=O)C1CCC(=O)N1C(c1ccccc1)c1cc(OC)c(OC)c(OC)c1 (stereo unspecified)
80.4 µM (inactive)

Identify the reported GI50 for the following entry. `Cc1ccc(S(=O)(=O)c2c(N)c3nc4ccccc4n3c3nc4ccccc4nc23)cc1`
6.75 µM (inactive)
